Here the recorded MFI is given for each entry.
molecular target: T1, LILRB5; experiment: flow cytometry, reporter cells
T1 construct: also called LILRB5 reporter cells; not shown: transmembrane/intracellular domains of PILRb, the display part of the chimeric reporter receptor
T1 sequence (chain, as listed by the source limits assumed): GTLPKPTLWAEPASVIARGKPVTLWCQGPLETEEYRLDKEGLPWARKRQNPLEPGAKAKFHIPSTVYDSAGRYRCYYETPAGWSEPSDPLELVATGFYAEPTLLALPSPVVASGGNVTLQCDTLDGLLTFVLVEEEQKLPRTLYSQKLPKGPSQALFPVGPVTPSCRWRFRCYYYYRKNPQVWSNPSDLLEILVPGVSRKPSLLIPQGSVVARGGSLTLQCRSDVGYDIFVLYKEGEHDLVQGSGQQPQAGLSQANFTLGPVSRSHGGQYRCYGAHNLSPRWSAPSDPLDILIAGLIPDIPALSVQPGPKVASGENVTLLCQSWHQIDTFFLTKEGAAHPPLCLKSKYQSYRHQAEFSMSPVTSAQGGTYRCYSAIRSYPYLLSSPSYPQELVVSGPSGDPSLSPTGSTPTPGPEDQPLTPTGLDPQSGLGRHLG

Please review the following examples before continuing.
B2-7 (antibody, V domains shown, also called B2-7_HC; B2-7_LC) VH: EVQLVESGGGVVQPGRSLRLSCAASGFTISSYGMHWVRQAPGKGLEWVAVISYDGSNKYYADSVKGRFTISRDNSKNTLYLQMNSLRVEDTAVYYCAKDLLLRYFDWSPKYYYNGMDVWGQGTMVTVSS VL: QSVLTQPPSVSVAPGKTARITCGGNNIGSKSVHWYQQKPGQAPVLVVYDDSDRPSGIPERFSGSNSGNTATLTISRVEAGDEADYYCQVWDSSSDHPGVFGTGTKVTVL ... 11
B2-16 (antibody, V domains shown, also called B2-16_HC; B2-16_LC) VH: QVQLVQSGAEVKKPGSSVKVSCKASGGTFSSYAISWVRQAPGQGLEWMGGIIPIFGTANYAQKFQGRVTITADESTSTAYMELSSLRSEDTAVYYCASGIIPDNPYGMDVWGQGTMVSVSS VL: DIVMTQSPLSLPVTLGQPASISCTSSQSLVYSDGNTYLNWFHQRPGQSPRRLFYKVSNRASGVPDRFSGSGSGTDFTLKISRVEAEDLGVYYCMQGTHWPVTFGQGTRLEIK ... 11
B2-15 (antibody, V domains shown, also called B-15; B2-15_HC) VH: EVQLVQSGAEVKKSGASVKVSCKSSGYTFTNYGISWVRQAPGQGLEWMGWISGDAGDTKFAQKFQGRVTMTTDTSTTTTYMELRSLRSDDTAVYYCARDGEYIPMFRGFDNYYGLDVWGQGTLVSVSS VL: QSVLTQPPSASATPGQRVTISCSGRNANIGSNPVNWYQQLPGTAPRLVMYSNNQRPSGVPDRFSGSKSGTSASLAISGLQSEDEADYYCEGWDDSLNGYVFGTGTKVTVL ... 11

# next binder below
Which MFI is listed for B2-17 (antibody, V domains shown, also called B2-17_HC; B2-17_LC) VH: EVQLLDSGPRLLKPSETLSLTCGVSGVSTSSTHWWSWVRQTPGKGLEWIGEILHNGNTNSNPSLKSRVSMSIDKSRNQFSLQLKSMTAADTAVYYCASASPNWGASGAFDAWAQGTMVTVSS VL: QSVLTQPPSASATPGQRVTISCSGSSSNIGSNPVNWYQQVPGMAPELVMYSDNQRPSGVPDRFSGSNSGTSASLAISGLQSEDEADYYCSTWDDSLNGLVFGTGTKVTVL ? 10
